# credit: ChEMBL document CHEMBL3045776

- assay text: Cytotoxicity against Chlorocebus aethiops (African green monkey) Vero cells
- Type: cell-based
- study conditions: chlorocebus sabaeus, read-out: CD50 (the source's name)
Kindly state CC50 for each of the entries shown.
Numbers only, in µg/mL.

Below, each entry is followed by its recorded CC50 result.
COC(=O)c1cc(=O)n2nc3c(Cl)nc4ccc(C)cc4n3c2n1 :: 160
Cc1ccc2nc(Sc3nnc(-c4ccccc4O)o3)c3nnc(N)n3c2c1 :: 160
Cc1ccc2nc(Cl)c3nnc(/N=C/c4ccc(O)cc4)n3c2c1 :: 160
C[C@@]1(CO)[C@H](O)CC[C@@]2(C)[C@H]1CC[C@H]1C[C@@H]3C[C@@]12CC[C@]3(O)CO :: 20
COc1ccc(/C=N/c2nnc3c(Cl)nc4ccc(C)cc4n23)cc1OC :: 160
Cc1ccc2nc(N3CCN(c4ccccc4C)CC3)c3nnc(NC(=O)c4ccccc4)n3c2c1 :: 160
Cc1ccc2nc(Cl)c3nnc(NC(=S)Nc4ccccc4)n3c2c1 :: 200
Cc1ccc2nc(Sc3nnc(-c4cccnc4)o3)c3nnc(N)n3c2c1 :: 160
Cc1ccc2nc(Sc3nnc(-c4cccs4)n3-c3ccccc3)c3nnc(N)n3c2c1 :: 160
CCNC(=S)Nc1nnc2c(Cl)nc3ccc(C)cc3n12 :: 160

Query compound follows.
Find the recorded CC50 belonging to Cc1ccc2nc(N3CCCCC3)c3nnc(NC(=O)c4ccccc4)n3c2c1 and report it.
160
